Test: Maximal tolerable dose and therapeutic index in the monkey
Details: in vivo
readout: MTD

Query: Note down MTD recorded for C[N+]1(CCCCCCCCCCCCCCCC[N+]2(C)CCCC2)CCCC1 [Example G25]
Reply: ~1.5 mg/kg

* * *

System: Plasmodium vinckei, petterei or chabaudi
Test: Therapeutic index in infected mice (antimalaria activity compared with semi-chronic toxicity)
Format: in vivo
Conditions: i.p. or s.c., twice a day for four days, ratio of activity over toxicity (LD50)
readout: Therapeutic index
Keep the answer to the number alone.

Query: Note down Therapeutic index recorded for C[N+]1(CCCCCCCCCCCCCCCC[N+]2(C)CCCC(CO)C2)CCCC(CO)C1 (stereo not shown)
Reply: 17

Query: Give recorded Therapeutic index. CCC[N+](CCC)(CCC)CCCCCCCCCCCCCCCC[N+](CCC)(CCC)CCC.[Br-].[Br-] [EXAMPLE 12]
Reply: 11

Query: Give the value of Therapeutic index reported for the following: CCC[N+](CCC)(CCC)CCCCCCCCCCCCCCCC[N+](CCC)(CCC)CCC.[Br-].[Br-] [EXAMPLE 9]
Reply: 36

Query: Consider the molecule C[N+]1(CCCCCCCCCCCCCC[N+]2(C)CCCC2CO)CCCC1CO (stereo not shown) and give its recorded Therapeutic index.
Reply: 22
